# TEST_NAME: Pharmacokinetics in AAV8-CYP3A4*12 mice
# EXPERIMENTAL_CONTEXT: C57BL/6J, mouse, serum, po, 16.5 mg/kg, t1/2z, aumolertinib 16.5 mg/kg oral alone (Aum)
EXPERIMENTAL_ENDPOINT: half-life (h)
Give your result in h as a bare value.

## Input Please give the measured half-life for this compound: C=CC(=O)Nc1cc(Nc2nccc(-c3cn(C4CC4)c4ccccc34)n2)c(OC)cc1N(C)CCN(C)C
## Output 11.9

---

# TEST_NAME: Pharmacokinetics of aumolertinib and HAS-719 in SD rats
# EXPERIMENTAL_CONTEXT: Sprague-Dawley, rat, plasma, po, 11 mg/kg, AUC(0-∞), carvedilol 5 mg/kg oral 0.5 h before aumolertinib 11 mg/kg oral (Car + Aum)
EXPERIMENTAL_ENDPOINT: AUC(0-inf) (ng·h/mL)
Give your result in ng·h/mL as a bare value.

## Input Please give the measured AUC(0-inf) for this molecule: C=CC(=O)Nc1cc(Nc2nccc(-c3cn(C4CC4)c4ccccc34)n2)c(OC)cc1N(C)CCN(C)C
## Output 203

---

# TEST_NAME: Pharmacokinetics in AAV8-CYP3A4*1 mice
# EXPERIMENTAL_CONTEXT: C57BL/6J, mouse, in vivo, po, 16.5 mg/kg, AUC(0-∞), telmisartan 12 mg/kg 0.5 h before aumolertinib 16.5 mg/kg oral (Tel+Aum)
EXPERIMENTAL_ENDPOINT: AUC(0-inf) (ng·h/mL)
Give your result in ng·h/mL as a bare value.

## Input Please give the measured AUC(0-inf) for this compound: C=CC(=O)Nc1cc(Nc2nccc(-c3cn(C4CC4)c4ccccc34)n2)c(OC)cc1N(C)CCN(C)C [Aumolertinib]
## Output 3710

---

# TEST_NAME: Pharmacokinetics in AAV8-CYP3A4*12 mice
# EXPERIMENTAL_CONTEXT: C57BL/6J, mouse, serum, po, 16.5 mg/kg, Cmax, carvedilol 7.5 mg/kg 0.5 h before aumolertinib 16.5 mg/kg oral (Car+Aum)
EXPERIMENTAL_ENDPOINT: Cmax (ng/mL)
Give your result in ng/mL as a bare value.

## Input Please give the measured Cmax for this compound: C=CC(=O)Nc1cc(Nc2nccc(-c3cn(C4CC4)c4ccccc34)n2)c(OC)cc1N(C)CCN(C)C [Aumolertinib]
## Output 143

---

# TEST_NAME: Pharmacokinetics in AAV8-Ctrl mice
# EXPERIMENTAL_CONTEXT: C57BL/6J, mouse, serum, po, 16.5 mg/kg, t1/2z, aumolertinib 16.5 mg/kg oral alone (Aum)
EXPERIMENTAL_ENDPOINT: half-life

## Input Please give the measured half-life for this compound: C=CC(=O)Nc1cc(Nc2nccc(-c3cn(C4CC4)c4ccccc34)n2)c(OC)cc1N(C)CCN(C)C
## Output 8.21 h

---

# TEST_NAME: Pharmacokinetics of aumolertinib and HAS-719 in SD rats
# EXPERIMENTAL_CONTEXT: Sprague-Dawley, rat, plasma, po, 11 mg/kg, AUC(0-t), carvedilol 5 mg/kg oral 0.5 h before aumolertinib 11 mg/kg oral (Car + Aum)
EXPERIMENTAL_ENDPOINT: AUC(0-t) (ng·h/mL)
Give your result in ng·h/mL as a bare value.

## Input Please give the measured AUC(0-t) for this molecule: C=CC(=O)Nc1cc(Nc2nccc(-c3cn(C4CC4)c4ccccc34)n2)c(OC)cc1N(C)CCN(C)C
## Output 198
